- Assay Text: Cell Viability - LYMP2-007 (AID 979);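 note: cells exposed to compound for 24 h before reading; nearly all actives have a fitted effect of over 60% in size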
- Test Settings: LYMP2-007 lymphoblastoid cell viability; series mostly up to 92.2 µM
Inconclusive results are not listed. Calls of active or inactive are those of the source. Calls come from the whole dose curve; as a rule, active = well fitted cell-killing curve with a large enough effect; inconclusive = small, poorly fitted or top-dose-only effect; inactive = flat fitted curve, though single readings scatter.
Respond using exactly one of the listed classes: True (active), False (inactive)

Some solved entries appear below for comparison.
Cc1ccccc1	False
O=C(O)CCC(=O)C(=O)O	False
CC(O)CO (stereo not given)	False
O=S(=O)(O)O	False
CC(C)=O	False
Nc1ccn([C@H]2CS[C@@H](CO)O2)c(=O)n1	False

Query: Record lookup: outcome of this test for CCCCCCCC/C=C\CCCCCCCC(=O)O ?
Response: False

Query: Record lookup: outcome of this test for O=CCCCC=O ?
Response: True

Query: Record lookup: outcome of this test for CCOc1ccc2c(c1)C(C)=CC(C)(C)N2 ?
Response: False

Query: Record lookup: outcome of this test for IC(I)I ?
Response: False
